Each item that follows carries a reported pKd.
molecular target: Cys-HLA (Staphylococcus aureus)
// scale note: pKd = -log10(conc_M); give the bare number

Entry Ma7C11 (VHH) VHH: QVQLVESGGGLVRAGGSLRLSCAASGSISSVNGMGWFRQAPGKERLFVAQVSLLDSSTYYADSVKGRFTISRDDAKNTMYLQMNNVRPEETAVYYCAATKLRIGTAFSSEYDYWGQGTQVTVSS — recorded pKd = 9.52

Entry Ma7B01 (VHH) VHH: QVQLVESGGGLVQAGDSLSLSCAASGRTFSNYAMGWFRQAPGKERHFVAVINQIGDSTWYPDFAKGRFTISRDNAKNTLYLQMNSLKPEDTAVYYCAATDPRSYWRIWPHEYGYWGQGTQVTVSS — recorded pKd = 10.30

Entry Ma7D06 (VHH) VHH: QVQLVESGGGLVQAGGSLRLSCAASGSISGIDTMAWFRQIPGKDREFVAVIKWAAGSTWYPDFVKGRFTVSRDNAKNMVYLQMDSVKPEDTAIYYCAAAAGEKYYYRLFPYEYDYWGQGTQVTVSS — recorded pKd = 10.22
